System Name: T1, Human MEF2B (residues 1-93 of SEQ ID NO:2) (human, UniProt Q02080 1-93)
T1 construct: Symmetric homodimer; In ITC it was used free; For the crystals it was expressed as a fusion with Cabin1 (cleaved with PreScission protease) or with MITR; also called MEF2B (1-93); MADS-box/MEF2S domain
T1 sequence: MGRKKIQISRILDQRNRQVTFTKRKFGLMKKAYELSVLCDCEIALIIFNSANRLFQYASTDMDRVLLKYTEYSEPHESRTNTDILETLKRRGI
Assay Text: ITC, 30 °C; Leu180Lys mutant
pKd: −log10 of the molar value.
Reported Metric: pKd

Looking for the measured pKd of HDAC4 (155-220) Leu180Lys mutant (other, Made and purified like the wild type (pET28a, nickel agarose)) LKNKEKGKESAVASTEVKMKLQEFVKNKKKALAHRNLNHCISSDPRYWYGKTQHSSLDQSSPPQSG , can you help?
~6.09
